These data points were gathered from ChEMBL document CHEMBL1641473.

# ASSAY_NAME: Antioxidant activity assessed as trolox equivalents of peroxyl radical scavenging activity by ORAC assay
# Assay type: functional
Rule for this label: True means Activity (Trolox equivalents) is less than 3; False means Activity (Trolox equivalents) is at least 3.

{"COMPOUND": "COc1ccc2c(c1)cc(/C=[N+](\\[O-])C(C)(C)C)n2C", "CAT": "False"}
{"COMPOUND": "CC(C)(C)/[N+]([O-])=C/c1cccnc1Br", "CAT": "True"}
{"COMPOUND": "CC(C)(C)/[N+]([O-])=C/c1ccccc1", "CAT": "True"}
{"COMPOUND": "COc1cc(Br)c(/C=[N+](\\[O-])C(C)(C)C)cc1OC", "CAT": "True"}
{"COMPOUND": "COc1cc(/C=[N+](/C)[O-])ccc1O", "CAT": "False"}
{"COMPOUND": "C/[N+]([O-])=C/c1ccccc1", "CAT": "True"}
{"COMPOUND": "CC(C)(C)/[N+]([O-])=C/c1cccnc1Cl", "CAT": "True"}
{"COMPOUND": "COc1cc(Br)c(/C=[N+](\\[O-])Cc2ccccc2)cc1O", "CAT": "False"}
{"COMPOUND": "CC(C)(C)/[N+]([O-])=C/c1c[nH]c2ccccc12", "CAT": "False"}
{"COMPOUND": "COc1cc(/C=[N+](\\[O-])Cc2ccccc2)c(Br)cc1O", "CAT": "False"}

Does the reported Activity (Trolox equivalents) of O=c1c(O)c(-c2ccc(O)c(O)c2)oc2cc(O)cc(O)c12 stay below 3?
False

Another compound to check: COc1cc(Br)c(/C=[N+](\[O-])C(C)(C)C)cc1O
False
